Origin of the recorded values: ChEMBL document CHEMBL5506043

test system: 4T1; assay: Antiproliferative activity against mouse 4T1 cells assessed as inhibition of cell growth incubated for 48 hrs by MTT assay; assay type: functional, cell-based; conditions: 4T1, 48 h
pIC50: −log10 of the molar value.
recorded_metric: pIC50

a. CCCCCc1nc(C(=O)N[C@@H](CCCNC(=N)CCl)C(=O)NCc2ccccc2)cc2c1[nH]c1ccccc12
b. Cn1c(-c2nc(C(=O)N[C@@H](CCCNC(=N)CCl)C(=O)NCc3ccccc3)cc3c2[nH]c2ccccc23)nc2ccccc21
Lower value of pIC50 belongs to which: a or b ? Label of pick, please.
a
(a: 5.09, b: 5.42)

1. CC(C)(C)c1nc(C(=O)N[C@@H](CCCNC(=N)CCl)C(=O)NCc2ccccc2)cc2c1[nH]c1ccccc12
2. N=C(CCl)NCCC[C@H](NC(=O)[C@@H]1Cc2ccccc2CN1)C(=O)NCc1ccccc1
Lower value of pIC50 belongs to which: 1 or 2 ? Label of pick, please.
2
(2: 4.13, 1: 5.12)
